Organism: Rattus norvegicus
Test: tested for their ability to inhibit the after- hyperpolarization in cultured rat sympathetic neurons (omitting the comparison with dequalinium)
Type: functional
Conditions: Sympathetic neuron
pIC50: −log10 of the molar value.
measurementType: pIC50

[[record]]
smilesinput = "[I-].[I-].c1ccc2c(c1)c1cc[n+]2CCCCC[n+]2ccc(c3ccccc32)NCCCCCN1"
measurementtype = "pIC50"
resultvalue = 8.57


----------
Assay: Equieffective molar ratio is ratio of the concentration of the test compound and dequalinium that cause 50% inhibition of AHP
measurementType: EMR

[[record]]
compound = "[I-].[I-].c1ccc2c(c1)c1cc[n+]2CCCCCCCCCC[n+]2ccc(c3ccccc32)NCCCCCCCCCCN1"
resultvalue = 0.44

[[record]]
compound = "[I-].[I-].c1ccc2c(c1)c1cc[n+]2CCC[n+]2ccc(c3ccccc32)NCCCN1 (stereo in doubt; form 1)"
resultvalue = 0.27

[[record]]
compound = "[I-].[I-].c1ccc2c(c1)c1cc[n+]2CCCC[n+]2ccc(c3ccccc32)NCCCCN1"
resultvalue = 0.09

[[record]]
compound = "[I-].[I-].c1ccc2c(c1)c1cc[n+]2CCCCC[n+]2ccc(c3ccccc32)NCCCCCN1"
resultvalue = 0.003

[[record]]
compound = "[I-].[I-].c1ccc2c(c1)c1cc[n+]2CCCCCCCC[n+]2ccc(c3ccccc32)NCCCCCCCCN1"
resultvalue = 0.43

[[record]]
compound = "c1cc2cc(c1)C[n+]1ccc(c3ccccc31)NCc1ccc(cc1)CNc1cc[n+](c3ccccc13)C2"
resultvalue = 0.01

[[record]]
compound = "[I-].[I-].c1ccc2c(c1)c1cc[n+]2CCC[n+]2ccc(c3ccccc32)NCCCN1 (stereo in doubt; form 2)"
resultvalue = 0.77

[[record]]
compound = "Cc1cc(N)c2ccccc2[n+]1CCCCCCCCCC[n+]1c(C)cc(N)c2ccccc21.[Cl-].[Cl-] [DEQUALINIUM CHLORIDE]"
resultvalue = 1

[[record]]
compound = "[I-].[I-].c1ccc2c(c1)c1cc[n+]2CCCCCC[n+]2ccc(c3ccccc32)NCCCCCCN1"
resultvalue = 0.1


----------
Species: Rattus norvegicus
Assay: tested for their ability to inhibit the after- hyperpolarization in cultured rat sympathetic neurons
Assay type: functional, Sympathetic neuron
Conditions: Rattus norvegicus, Sympathetic neuron
pIC50: −log10 of the molar value.
Recorded pIC50 by entry
measurementType: pIC50

[[record]]
smilesinput = "[I-].[I-].c1ccc2c(c1)c1cc[n+]2CCCCCC[n+]2ccc(c3ccccc32)NCCCCCCN1"
resultvalue = 7.22

[[record]]
smilesinput = "[I-].[I-].c1ccc2c(c1)c1cc[n+]2CCCC[n+]2ccc(c3ccccc32)NCCCCN1"
resultvalue = 7.40

[[record]]
smilesinput = "[I-].[I-].c1ccc2c(c1)c1cc[n+]2CCCCC[n+]2ccc(c3ccccc32)NCCCCCN1"
resultvalue = 8.70

[[record]]
smilesinput = "[I-].[I-].c1ccc2c(c1)c1cc[n+]2CCCCCCCC[n+]2ccc(c3ccccc32)NCCCCCCCCN1"
resultvalue = 6.72

[[record]]
smilesinput = "[I-].[I-].c1ccc2c(c1)c1cc[n+]2CCCCCCCCCC[n+]2ccc(c3ccccc32)NCCCCCCCCCCN1"
resultvalue = 6.59

